- system: Phosphatidylinositol 4,5-bisphosphate 3-kinase catalytic subunit alpha isoform (Homo sapiens)
- Sequence (P42336 whole entry, canonical isoform): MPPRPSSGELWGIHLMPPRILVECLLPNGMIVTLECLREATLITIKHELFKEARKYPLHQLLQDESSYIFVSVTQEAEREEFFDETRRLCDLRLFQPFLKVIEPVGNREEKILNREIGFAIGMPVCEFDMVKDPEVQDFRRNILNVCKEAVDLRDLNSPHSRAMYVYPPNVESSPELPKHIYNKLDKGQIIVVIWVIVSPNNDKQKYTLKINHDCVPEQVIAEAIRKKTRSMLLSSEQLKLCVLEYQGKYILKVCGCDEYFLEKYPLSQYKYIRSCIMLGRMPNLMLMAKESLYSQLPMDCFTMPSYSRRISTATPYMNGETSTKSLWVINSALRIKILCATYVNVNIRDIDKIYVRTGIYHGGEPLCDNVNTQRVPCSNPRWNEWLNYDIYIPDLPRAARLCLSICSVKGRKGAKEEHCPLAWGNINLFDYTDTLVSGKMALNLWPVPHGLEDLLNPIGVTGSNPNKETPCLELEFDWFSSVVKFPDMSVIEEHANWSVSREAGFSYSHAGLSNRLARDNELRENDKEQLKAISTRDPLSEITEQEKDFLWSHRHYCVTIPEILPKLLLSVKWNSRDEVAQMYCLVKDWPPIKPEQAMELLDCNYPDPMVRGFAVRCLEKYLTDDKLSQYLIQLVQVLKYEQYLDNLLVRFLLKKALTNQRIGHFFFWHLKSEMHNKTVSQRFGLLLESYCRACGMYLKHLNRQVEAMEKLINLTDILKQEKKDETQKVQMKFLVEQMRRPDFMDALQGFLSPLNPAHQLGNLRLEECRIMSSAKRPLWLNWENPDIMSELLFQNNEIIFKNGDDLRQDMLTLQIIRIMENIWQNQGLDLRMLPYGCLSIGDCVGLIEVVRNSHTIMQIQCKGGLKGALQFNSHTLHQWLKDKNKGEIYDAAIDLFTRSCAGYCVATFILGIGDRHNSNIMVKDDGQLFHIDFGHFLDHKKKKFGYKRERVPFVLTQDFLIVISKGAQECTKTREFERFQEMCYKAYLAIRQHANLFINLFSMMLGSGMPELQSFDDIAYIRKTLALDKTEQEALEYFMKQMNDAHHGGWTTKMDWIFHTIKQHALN
- experiment-description: Inhibition of PI3Kalpha (unknown origin) using PIP2 as substrate preincubated for 15 mins followed by substrate addition measured after 60 mins in presence of ATP by HTRF method
pIC50: −log10 of the molar value.
Use Met when the recorded pIC50 is no lower than 6; use Not met when it is lower.

Solved entries (count: 3):
compound	group-label
Cc1nnc2n1[C@H]1CCN(Cc3cc4nc(-c5cccc6[nH]ncc56)nc(N5CCOCC5)c4s3)C[C@H]1CC2 (relative stereo)	Not met
Cc1nnc2n1[C@H]1CCN(Cc3cc4nc(-c5cccc6[nH]ccc56)nc(N5CCOCC5)c4s3)C[C@H]1CC2 (relative stereo)	Not met
Cc1nnc2n1[C@H]1CCN(Cc3cc4nc(-c5cccc6[nH]ncc56)nc(N5CCOCC5)c4s3)C[C@@H]1CC2 (relative stereo)	Met

Please find the next compound below.
Input line: Evaluate Oc1cccc(-c2nc(N3CCOCC3)c3sc(CN4CC[C@H]5[C@@H](CCc6nnc(C(F)(F)F)n65)C4)cc3n2)c1 (relative stereo) : pIC50 at minimum 6?
Output line: Met
